# maps each entry to its Bliss excess
tested on: SK-OV-3 (Ovarian Carcinoma); assay: Bliss excess, mean over the matrix (fraction); higher = more synergy;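 also: after 72 h of two-drug dosing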
Hey, just send me the number, nothing else.

stdin: // Bliss excess lookup, key: CCc1c2c(nc3ccc(O)cc13)-c1cc3c(c(=O)n1C2)COC(=O)[C@]3(O)CC [SN-38] + CN(C)CCCOc1ccc(-c2ccc3ncc4c(c3c2)n(C2CCOCC2)c(=O)n4C)cn1 [AZD0156] (first compound max 0.3 µM, 7x7, partner max 1 µM)
stdout: -0.0132

stdin: Dear colleague, I am looking for the recorded Bliss excess of the following compound: Cc1c2c(nn1C)CSCc1cc(n(C)n1)CSc1cc(c3ccccc3c1)OCCCc1c(C(=O)O)n(C)c3c-2c(Cl)ccc13 [AZD5991] + CN(C)CCCOc1ccc(-c2ccc3ncc4c(c3c2)n(C2CCOCC2)c(=O)n4C)cn1 [AZD0156] (first compound max 1 µM, 7x7, partner max 1 µM)
stdout: 0.0106

stdin: Entry C[C@@H](Oc1cc(-c2cnn(C3CCNCC3)c2)cnc1N)c1c(Cl)ccc(F)c1Cl [Crizotinib] + CC1=C(C(=CC=C1)Cl)NC(=O)C2=CN=C(S2)NC3=CC(=NC(=N3)C)N4CCN(CC4)CCO [Dasatinib] (first compound max 10 µM, 7x7, partner max 2 µM) : reported Bliss excess = ?
stdout: 0.0301

***
stdin: Which Bliss excess value is on record for COc1nnc2ccc(N3CCC(c4ccc(OCCN5CCN(C)C(=O)[C@H]5C)cc4)CC3)nn12 [AZD5153] + CCN(CCO)CCCOc1ccc2c(Nc3cc(CC(=O)Nc4cccc(F)c4)[nH]n3)ncnc2c1 [AZD2811] (first compound max 1 µM, 7x7, partner max 1 µM) ?
stdout: -0.0703

stdin: Query: Bliss excess; subject: C=CCn1c(=O)c2cnc(Nc3ccc(N4CCN(C)CC4)cc3)nc2n1-c1cccc(C(C)(C)O)n1 [AZD1775] + O=C(c1cc(Cc2n[nH]c(=O)c3ccccc23)ccc1F)N1CCN(C(=O)C2CC2)CC1 [Olaparib] (first compound max 1 µM, partner max 10 µM)
stdout: -0.0465

stdin: Bench note: what Bliss excess did CN(CCO)CC[C@H](CSc1ccccc1)Nc1ccc(S(=O)(=O)NC(=O)c2ccc(N3CCC([C@@H](O)c4ccccc4-c4ccc(Cl)cc4)CC3)cc2)cc1S(=O)(=O)C(F)(F)F [AZD4320] + C[C@@H](Nc1cc(F)cc(F)c1)c1cc(C(=O)N(C)C)cc2c(=O)cc(N3CCOCC3)oc12 [AZD8186] (first compound max 1 µM, 7x7, partner max 3 µM) show?
stdout: 0.0008

stdin: Given Cc1nc(-c2cn3c(n2)-c2ccc(-c4cnn(C(C)(C)C(N)=O)c4)cc2OCC3)n(C(C)C)n1 [Taselisib] + O=C(Nc1ccc2[nH]nc(-c3ccncc3)c2c1)[C@@H]1CCN(CC(=O)N2CCN(c3ccc(-c4ncccn4)cc3)CC2)C1 [SCH772984] (first compound max 10 µM, 7x7, partner max 5 µM) , state its recorded Bliss excess.
stdout: 0.0609

stdin: So what's the measured Bliss excess for this one? COc1cccc(OCCCN)c1-c1cc(Nc2cnc(C#N)cn2)n[nH]1 [Prexasertib] + CN(C)CCCOc1ccc(-c2ccc3ncc4c(c3c2)n(C2CCOCC2)c(=O)n4C)cn1 [AZD0156] (first compound max 1 µM, 7x7, partner max 1 µM)
stdout: -0.066

stdin: Dear colleague, I am looking for the recorded Bliss excess of the following compound: CC(=O)c1c(C)c2cnc(Nc3ccc(N4CCNCC4)cn3)nc2n(C2CCCC2)c1=O [Palbociclib] + Cn1cnc2c(F)c(Nc3ccc(Br)cc3Cl)c(C(=O)NOCCO)cc21 [Selumetinib] (first compound max 10 µM, 7x7, partner max 10 µM)
stdout: -0.0419

stdin: Sample CN(CCO)CC[C@H](CSc1ccccc1)Nc1ccc(S(=O)(=O)NC(=O)c2ccc(N3CCC([C@@H](O)c4ccccc4-c4ccc(Cl)cc4)CC3)cc2)cc1S(=O)(=O)C(F)(F)F [AZD4320] + Nc1ccn([C@@H]2O[C@H](CO)[C@@H](O)C2(F)F)c(=O)n1 [Gemcitabine] (first compound max 1 µM, 7x7, partner max 0.3 µM) — what was its Bliss excess?
stdout: -0.0695

stdin: Look up Bliss excess: Cc1c2c(nn1C)CSCc1cc(n(C)n1)CSc1cc(c3ccccc3c1)OCCCc1c(C(=O)O)n(C)c3c-2c(Cl)ccc13 [AZD5991] + Nc1ccn([C@@H]2O[C@H](CO)[C@@H](O)C2(F)F)c(=O)n1 [Gemcitabine] (first compound max 1 µM, 7x7, partner max 0.3 µM)
stdout: -0.0401

stdin: Please look up its Bliss excess: CCc1c2c(nc3ccc(O)cc13)-c1cc3c(c(=O)n1C2)COC(=O)[C@]3(O)CC [SN-38] + O=C(c1cc(Cc2n[nH]c(=O)c3ccccc23)ccc1F)N1CCN(C(=O)C2CC2)CC1 [Olaparib] (first compound max 0.3 µM, 7x7, partner max 10 µM)
stdout: 0.0571

stdin: What value of measured Bliss excess is listed for CN(CCO)CC[C@H](CSc1ccccc1)Nc1ccc(S(=O)(=O)NC(=O)c2ccc(N3CCC([C@@H](O)c4ccccc4-c4ccc(Cl)cc4)CC3)cc2)cc1S(=O)(=O)C(F)(F)F [AZD4320] + CS(=O)(=O)CCNCc1ccc(-c2ccc3ncnc(Nc4ccc(OCc5cccc(F)c5)c(Cl)c4)c3c2)o1 [Lapatinib] (first compound max 1 µM, 7x7, partner max 10 µM) ?
stdout: -0.0007

Source: the supplement of paper PMC11061612
